# assay-target: serotonin 4 receptor (5-HT4) (Cavia porcellus)
# Construct: from tissue; host or cells: longitudinal muscle strips of guinea pig ileum (Harley guinea pigs)
# protocol-description: Stimulating activity on serotonin 4 receptor (twitch response in guinea pig ileum)
# Type: cell-based
Counter-ions that a name gives are not always drawn.
EC50 values, listed per item
quantity: EC50 (µM)

* CC(C)n1c(=O)c(C(=O)OC2CC3CCC(C2)N3CCCCCO)cc2ccccc21 (stereo not shown) [Compound 40, hydrochloride] | 0.0255
* COCCN1[C@@H]2CC[C@H]1C[C@@H](NC(=O)c1cc3ccccc3n(C(C)C)c1=O)C2 [Compound 10, hydrochloride] | 0.015
* CC(C)n1c(=O)c(C(=O)NC2CC3CCC(C2)N3CC(=O)O)cc2ccccc21 (stereo not shown) | 0.0661
* CC(C)n1c(=O)c(C(=O)OC2CC3CCC(C2)N3CCCCO)cc2ccccc21 (stereo not shown) [Compound 39, hydrochloride] | 0.0166

---

Where a name gives a salt, the structure may show the parent alone.
A short record of IC50 observed with 5-HT3 receptor (Rattus norvegicus, UniProt P35563) follows.
Sequence (P35563 24-483): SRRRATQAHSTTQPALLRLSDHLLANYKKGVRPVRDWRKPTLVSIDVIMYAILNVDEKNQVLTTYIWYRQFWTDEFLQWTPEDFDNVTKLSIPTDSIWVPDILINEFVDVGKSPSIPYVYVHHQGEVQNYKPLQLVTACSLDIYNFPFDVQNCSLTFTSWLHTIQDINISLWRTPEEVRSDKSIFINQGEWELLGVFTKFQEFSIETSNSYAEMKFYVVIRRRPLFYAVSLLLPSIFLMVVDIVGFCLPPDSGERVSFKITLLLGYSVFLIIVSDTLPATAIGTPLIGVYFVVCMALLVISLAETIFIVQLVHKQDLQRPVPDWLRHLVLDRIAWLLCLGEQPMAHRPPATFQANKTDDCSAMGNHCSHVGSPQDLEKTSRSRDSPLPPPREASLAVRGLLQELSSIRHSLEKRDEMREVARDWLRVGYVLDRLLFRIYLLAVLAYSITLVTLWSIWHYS
quantity: IC50

- CC(C)n1c(=O)c(C(=O)NC2CC3CCC(C2)N3CCCO)cc2ccccc21 (stereo not shown): 977 nM
- CC(C)n1c(=O)c(C(=O)N[C@H]2C[C@H]3CC[C@@H](C2)N3CCN2CCOCC2)cc2ccccc21: 509 nM
- COCCN1[C@@H]2CC[C@H]1C[C@@H](NC(=O)c1cc3ccccc3n(C(C)C)c1=O)C2 [Compound 10, hydrochloride]: 811 nM
- CCOCCN1C2CCC1CC(NC(=O)c1cc3ccccc3n(C(C)C)c1=O)C2 (stereo not shown): 423 nM

---

# assay-target: serotonin 4 receptor (5-HT4) (Cavia porcellus, UniProt O70528)
# Construct: from tissue; host or cells: longitudinal muscle strips of guinea pig ileum (Harley guinea pigs)
# Sequence (O70528 whole entry): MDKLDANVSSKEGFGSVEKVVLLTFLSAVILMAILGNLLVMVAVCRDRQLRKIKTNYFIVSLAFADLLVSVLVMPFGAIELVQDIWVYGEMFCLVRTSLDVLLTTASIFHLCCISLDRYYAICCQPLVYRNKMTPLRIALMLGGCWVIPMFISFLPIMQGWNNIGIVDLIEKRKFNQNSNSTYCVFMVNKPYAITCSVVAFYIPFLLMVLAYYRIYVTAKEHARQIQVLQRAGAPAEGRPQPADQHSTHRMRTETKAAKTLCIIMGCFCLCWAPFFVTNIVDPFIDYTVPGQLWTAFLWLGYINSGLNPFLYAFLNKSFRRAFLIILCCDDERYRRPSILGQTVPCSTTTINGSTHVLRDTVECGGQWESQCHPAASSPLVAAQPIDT
# protocol-description: Stimulating activity on serotonin 4 receptor (twitch response in guinea pig ileum)
# Format: cell-based
Counter-ions that a name gives are not always drawn.
quantity: EC50 (nM)

* CC(C)n1c(=O)c(C(=O)NC2CC3CCC(C2)N3CCC#N)cc2ccccc21 (stereo not shown) | 35.8
* CC(C)n1c(=O)c(C(=O)O[C@H]2C[C@H]3CC[C@@H](C2)N3CCS(=O)(=O)c2ccccc2)cc2ccccc21 | 46.5
* CC(C)n1c(=O)c(C(=O)O[C@H]2C[C@H]3CC[C@@H](C2)N3CCCCCCO)cc2ccccc21 [Compound 41, hydrochloride] | 50.9
* CC(C)n1c(=O)c(C(=O)N[C@H]2C[C@H]3CC[C@@H](C2)N3CCN2CCOCC2)cc2ccccc21 | 25.5

---

# assay-target: serotonin 4 receptor (5-HT4) (Cavia porcellus, UniProt O70528)
# Construct: from tissue; host or cells: longitudinal muscle strips of guinea pig ileum (Harley guinea pigs)
# protocol-description: Stimulating activity on serotonin 4 receptor (twitch response in guinea pig ileum)
# Assay type: cell-based
# test-parameters: twitch response in guinea pig ileum; maximum contraction of sample compound = 100%; read-out: ED50 (concentration enhancing the twitch response by 50%)
Counter-ions that a name gives are not always drawn.
quantity: EC50

• CC(C)n1c(=O)c(C(=O)O[C@H]2C[C@H]3CC[C@@H](C2)N3c2nccs2)cc2ccccc21 [Compound 58, hydrochloride, reference compound] = 1.14 µM
• CN1[C@@H]2CC[C@H]1C[C@@H](NC(=O)c1cc3ccccc3[nH]c1=O)C2 [Comparative Compound 2, reference compound] = > 3 µM
• CCCCn1c(=O)c(C(=O)N[C@H]2C[C@H]3CC[C@@H](C2)N3C)c(O)c2ccccc21 [Comparative Compound 4, reference compound] = > 3 µM
• COc1ccc(N2[C@@H]3CC[C@H]2C[C@@H](OC(=O)c2cc4ccccc4n(C(C)C)c2=O)C3)cc1 [Compound 57, reference compound] = > 3 µM
• CN1[C@@H]2CC[C@H]1C[C@@H](OC(=O)c1cc3ccccc3[nH]c1=O)C2 [Comparative Compound 3, reference compound] = > 3 µM

---

# assay-target: serotonin 4 receptor (5-HT4) (Cavia porcellus)
# Construct: from tissue; host or cells: longitudinal muscle strips of guinea pig ileum (Harley guinea pigs)
# protocol-description: Stimulating activity on serotonin 4 receptor (twitch response in guinea pig ileum)
# Format: cell-based
# Method: Stimulating activity on serotonin 4 receptor From Harley guinea pigs weighing 250 to 400 g, a section of ileum 10 to 20 cm proximal to the ileocecal junction was removed. Longitudinal muscle strips obtained from the ileum were used for this assay. […] Responses were recorded isometrically. […] The data obtained was analyzed by RS1 (BBN Software Product Co.).
Counter-ions that a name gives are not always drawn.
Consider the cut-off 40 nM. If the recorded EC50 is strictly smaller, the label is yes; if not, the label is no.

* CC(=O)CCCN1[C@@H]2CC[C@H]1C[C@@H](OC(=O)c1cc3ccccc3n(C(C)C)c1=O)C2 [Compound 53, hydrochloride] | yes
* CCOCCN1C2CCC1CC(NC(=O)c1cc3ccccc3n(C(C)C)c1=O)C2 (stereo not shown) | yes
* COCCN1[C@@H]2CC[C@H]1C[C@@H](OC(=O)c1cc3ccccc3n(C(C)C)c1=O)C2 [Compound 42, hydrochloride] | yes
* CCN(CC)CCN1[C@@H]2CC[C@H]1C[C@@H](OC(=O)c1cc3ccccc3n(C(C)C)c1=O)C2 [Compound 44, dihydrochloride] | no
* CSCCN1[C@@H]2CC[C@H]1C[C@@H](OC(=O)c1cc3ccccc3n(C(C)C)c1=O)C2 | yes
* CC(=O)OCCCCCN1C2CCC1CC(NC(=O)c1cc3ccccc3n(C(C)C)c1=O)C2 (stereo not shown) [Compound 9, hydrochloride] | yes
* CC(C)n1c(=O)c(C(=O)OC2CC3CCC(C2)N3CCCO)cc2ccccc21 (stereo not shown) | yes
* CC(C)n1c(=O)c(C(=O)O[C@H]2C[C@H]3CC[C@@H](C2)N3CCC#N)cc2ccccc21 | yes
* CC(C)n1c(=O)c(C(=O)OC2CC3CCC(C2)N3CCO)cc2ccccc21 (stereo not shown) [Compound 37, hydrochloride] | yes
* CC(=O)CCCN1C2CCC1CC(NC(=O)c1cc3ccccc3n(C(C)C)c1=O)C2 (stereo not shown) | no
* COCCOCCN1[C@@H]2CC[C@H]1C[C@@H](OC(=O)c1cc3ccccc3n(C(C)C)c1=O)C2 [Compound 59, hydrochloride] | no
* C=CCN1C2CCC1CC(NC(=O)c1cc3ccccc3n(C(C)C)c1=O)C2 (stereo not shown) | no
* CC(C)n1c(=O)c(C(=O)NC2CC3CCC(C2)N3CCCO)cc2ccccc21 (stereo not shown) | yes
* CCOC(=O)CCCN1C2CCC1CC(NC(=O)c1cc3ccccc3n(C(C)C)c1=O)C2 (stereo not shown) [Compound 27, hydrochloride] | yes
* CC(C)n1c(=O)c(C(=O)NC2CC3CCC(C2)N3CCCCO)cc2ccccc21 (stereo not shown) | yes
* CC(C)n1c(=O)c(C(=O)NC2CC3CCC(C2)N3CCO)cc2ccccc21 (stereo not shown) | no
* CC(C)n1c(=O)c(C(=O)O[C@H]2C[C@H]3CC[C@@H](C2)N3CC(N)=O)cc2ccccc21 | yes
* CC(C)n1c(=O)c(C(=O)O[C@H]2C[C@H]3CC[C@@H](C2)N3CC2CCCCO2)cc2ccccc21 (stereo partly shown) [Compound 48, hydrochloride] | no
* CC(=O)CN1C2CCC1CC(NC(=O)c1cc3ccccc3n(C(C)C)c1=O)C2 (stereo not shown) [Compound 30, hydrochloride] | yes
* CC(=O)CN1[C@@H]2CC[C@H]1C[C@@H](OC(=O)c1cc3ccccc3n(C(C)C)c1=O)C2 [Compound 52, hydrochloride] | yes
* C=CCN1C2CCC1CC(OC(=O)c1cc3ccccc3n(C(C)C)c1=O)C2 (stereo not shown) [Compound 35, hydrochloride] | no
* CSCCN1C2CCC1CC(NC(=O)c1cc3ccccc3n(C(C)C)c1=O)C2 (stereo not shown) | no
